- target of assay: T1, Nop15 no-linker (Saccharomyces cerevisiae, UniProt P53927 40-191, del60-76)
- T1 sequence: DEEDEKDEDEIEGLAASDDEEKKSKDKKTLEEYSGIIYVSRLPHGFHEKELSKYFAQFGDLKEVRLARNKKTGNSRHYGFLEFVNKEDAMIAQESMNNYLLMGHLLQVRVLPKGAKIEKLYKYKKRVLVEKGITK
- assay procedure: fluorescence polarization; 150 mM NaCl; Nop15 FP: 10 nM RNA/DNA, 20 mM Tris-HCl pH 7.5, 0.02% Tween 20, 150 or 50 mM NaCl; SRSF3 FP: 10 mM MES pH 5.5, 50 mM Arg/Glu, 0.1 mM TCEP, 0.02% Tween 20; incubated 37 °C 30 min then 25 °C 20 min, read at RT
- details: protein: recombinant; tags: N-terminal SUMO tag (pSMT3) cleaved with Ulp1; label: 5' fluorescein; hairpin with 8 bp stem and 9-nt single-stranded region
recorded endpoint: pKd
A value of pKd is the negative decimal logarithm of a concentration given in moles per litre.

Need pKd of UGAGUGAUACUCUUUGGAGUUAACUUGAAAUUGCU (structured_RNA) [ITS2 III.A 26-60] , thanks.
6.23
